Tested on: T1, ERRα1 (estrogen-related receptor alpha 1, NR3B1) (Homo sapiens, UniProt P11474 P11474:1-423)
T1 sequence: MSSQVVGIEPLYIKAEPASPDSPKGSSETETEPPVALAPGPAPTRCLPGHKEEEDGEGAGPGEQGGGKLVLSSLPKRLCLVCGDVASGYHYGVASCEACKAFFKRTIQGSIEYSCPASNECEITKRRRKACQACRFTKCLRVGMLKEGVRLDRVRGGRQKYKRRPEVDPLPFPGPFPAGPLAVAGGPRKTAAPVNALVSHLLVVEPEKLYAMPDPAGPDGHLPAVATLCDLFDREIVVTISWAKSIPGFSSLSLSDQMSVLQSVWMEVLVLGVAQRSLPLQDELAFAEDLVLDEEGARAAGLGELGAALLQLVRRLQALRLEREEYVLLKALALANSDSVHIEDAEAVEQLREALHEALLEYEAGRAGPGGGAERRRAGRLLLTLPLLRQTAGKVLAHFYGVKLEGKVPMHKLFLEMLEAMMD
Assay explanation: competition; competition EMSA, COS extract
Assay setup: tags: COS / COS-M6 whole-cell extract, pcDNA3.1-hERRα1 or pRSV-hERRα1
Assay metric: binding signal

- Binder: "Prolactin site 3 (dsDNA) DNA 1: CCTCAGAGTGGCTCAGGGTCAGAGAAGGTAGAG DNA 2: CTCTACCTTCTCTGACCCTGAGCCACTCTGAGG"
  Reported value: "0.07 RBA vs reference ERRE"
- Binder: "Prolactin site 1 (dsDNA) DNA 1: TGTCCATTTTCTTCTAGGTCAACCCCAATGGTA DNA 2: TACCATTGGGGTTGACCTAGAAGAAAATGGACA"
  Reported value: "0.06 RBA vs reference ERRE"
- Binder: "IGF2 site 3 (dsDNA) DNA 1: GGTGGACGCTGCTGAAGGTGAGCGAGACCCCGG DNA 2: CCGGGGTCTCGCTCACCTTCAGCAGCGTCCACC"
  Reported value: "0.06 RBA vs reference ERRE"
- Binder: "EGF site (dsDNA) DNA 1: CAAATAATGGGCTGAAGGTGAACTATCTTTACT DNA 2: AGTAAAGATAGTTCACCTTCAGCCCATTATTTG"
  Reported value: "0.14 RBA vs reference ERRE"
- Binder: "PgR site 1 (dsDNA) DNA 1: AAAATTGTTTTGTCTAGGTCATTTGCATTTTCA DNA 2: TGAAAATGCAAATGACCTAGACAAAACAATTTT"
  Reported value: "0.14 RBA vs reference ERRE"
- Binder: "aromatase site (dsDNA) DNA 1: CCTGAGACTCTACCAAGGTCAGAAATGCTGCAA DNA 2: TTGCAGCATTTCTGACCTTGGTAGAGTCTCAGG"
  Reported value: "0.17 RBA vs reference ERRE"
- Binder: "IGF1R site (dsDNA) DNA 1: GCTCCGGCTCGCTGAAGGTCACAGCCGAGGCGA DNA 2: TCGCCTCGGCTGTGACCTTCAGCGAGCCGGAGC"
  Reported value: "0.36 RBA vs reference ERRE"
- Binder: "ERα promoter site (dsDNA) DNA 1: ATGTTTGGTATGAAAAGGTCACATTTTATATTC DNA 2: GAATATAAAATGTGACCTTTTCATACCAAACAT"
  Reported value: "0.11 RBA vs reference ERRE"
- Binder: "PgR site 3 (dsDNA) DNA 1: TCCTAAGGACTGTCAAGGTCATCAAATACAAGG DNA 2: CCTTGTATTTGATGACCTTGACAGTCCTTAGGA"
  Reported value: "1.45 RBA vs reference ERRE"
- Binder: "BRCA1 site (dsDNA) DNA 1: GTAATTGCTGTACGAAGGTCAGAATCGCTACCT DNA 2: AGGTAGCGATTCTGACCTTCGTACAGCAATTAC"
  Reported value: "0.17 RBA vs reference ERRE"
